Biological target: human CYP11B1 (Homo sapiens)
Sequence (P15538 25-503): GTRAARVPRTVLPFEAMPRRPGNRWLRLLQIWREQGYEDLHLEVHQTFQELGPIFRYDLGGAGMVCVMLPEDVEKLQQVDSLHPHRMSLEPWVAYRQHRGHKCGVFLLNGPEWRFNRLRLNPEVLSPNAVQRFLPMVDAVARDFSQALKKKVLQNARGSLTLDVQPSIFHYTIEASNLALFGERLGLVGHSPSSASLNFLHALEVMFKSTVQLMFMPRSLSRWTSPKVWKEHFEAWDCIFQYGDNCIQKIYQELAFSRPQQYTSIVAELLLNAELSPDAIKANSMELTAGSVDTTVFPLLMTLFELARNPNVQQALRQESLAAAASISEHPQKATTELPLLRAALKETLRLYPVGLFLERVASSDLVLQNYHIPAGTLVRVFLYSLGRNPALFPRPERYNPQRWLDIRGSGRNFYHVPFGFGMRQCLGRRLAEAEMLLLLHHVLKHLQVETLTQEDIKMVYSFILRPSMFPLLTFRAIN
Assay: G-402 cellular enzyme assay, human CYP11B1 (cortisol release, HTRF)
Settings: G-402 cells, 1 μM Deoxycortisol
EXPERIMENTAL READOUT: EC50 (µM)

The following compounds have reported results that may help.
>>> value("O=C1c2ccc(Cl)cc2C2(CC2)N1c1cncc(F)c1")
3.91
>>> value("Cc1cccnc1C(=O)NCc1cncc(N2C(=O)c3ccc(Cl)cc3C2(C)C)c1")
0.737
>>> value("CNC(C)c1cncc(N2CCc3cc(Cl)ccc3C2=O)c1 (centres unmarked)")
5.02

P = O=Cc1cncc(N2CCc3cc(Cl)ccc3C2=O)c1
Q = CCOC(=O)c1nccn1Cc1cncc(N2CCc3cc(Cl)ccc3C2=O)c1
Lookup: Exercise: compare P and Q ; which one has the greater EC50? The response must carry the label of the picked entry.
Found: P

* * *

Biological target: human CYP11B1 (Homo sapiens, UniProt P15538)
Experiment: G-402 cellular enzyme assay, human CYP11B1 (cortisol release, HTRF)
Details: G-402 cells, 1 μM Deoxycortisol
From the text: Herein we identified the use of the G-402 cell line as a host cell to ectopically express (transiently or stably) enzymes of the CYP11 family. […] Importantly the identified cell line G-402 expresses co-factors (adrenodoxin and adrenodoxin reductase) important for the activity of the CYP11 family and no relevant enzyme activity of the CYP11 family (in comparison to H295R cells) was detected in these cells. […]
EXPERIMENTAL READOUT: EC50 (nM)

>>> value("O=C1c2ccc(Cl)cc2CCN1c1cncc(CN2C(=O)CC[C@H]2CO)c1 [Example 83]")
15700
>>> value("COC[C@@H]1CCCN1Cc1cncc(N2Cc3cc(Cl)ccc3C2=O)c1 [Example 113]")
1360
>>> value("O=C1c2ccc(Cl)cc2CN1c1cncc2c1CCC[C@@H]2O [Example 340]")
14200
>>> value("O=C1c2ccc(Cl)cc2CCN1c1cncc(NS(=O)(=O)C2CC2)c1 [Example 221]")
10100
>>> value("CC1(C)c2cc(Cl)ccc2C(=O)N1c1cncc(CNC(=O)c2ccncc2Cl)c1 [Example 437]")
1640
>>> value("CC[C@H]1c2cc(Cl)ccc2C(=O)N1c1cncc2c1CCC[C@H]2NC(C)=O (single isomer, unassigned) [Example 357]")
3220
>>> value("CC(C)OCc1cncc(N2CCc3cc(Cl)ccc3C2=O)c1 [Example 194]")
224
>>> value("CCCc1nccn1Cc1cncc(N2CCc3cc(Cl)ccc3C2=O)c1 [Example 161]")
341
>>> value("CC1(C)c2cc(Cl)ccc2C(=O)N1c1cncc(F)c1 [Example 129]")
3160
>>> value("O=C1c2ccc(Cl)cc2CCN1c1cncc(Cn2ncc3ccccc32)c1 [Example 182]")
306

P = O=C(Cc1cncc(N2CCc3cc(Cl)ccc3C2=O)c1)NCCO [Example 264]
Q = O=C1c2ccc(Cl)cc2CCN1c1cncc(Cn2cnnc2)c1 [Example 179]
Lookup: Would you mind telling me which has the lower recorded EC50 between P and Q ? The response must carry the label of the picked entry.
Found: P
(P: 4190 nM, Q: 7720 nM)

a = COc1cncc(N2CCc3cc(Cl)ccc3C2=O)c1 [Example 10]
b = CS(=O)(=O)NCc1cncc(N2C(=O)c3cc(F)ccc3C23CC3)c1 [Example 401]
c = COc1cncc(N2C(=O)c3ccc(Cl)cc3C2C)c1 (stereo not drawn) [Example 120]
d = CC1(C)c2cc(Cl)ccc2C(=O)N1c1cncc(CNC(=O)c2cccnc2Cl)c1 [Example 433]
Lookup: Ascending by EC50, please. Give me the labels in the order the question wants.
Found: c, a, d, b
(c: 207 nM, a: 822 nM, d: 1310 nM, b: 9100 nM)

A = O=C(Nc1cncc(N2CCc3cc(Cl)ccc3C2=O)c1)c1ccc(F)cc1 [Example 249]
B = CC(=O)N1CC[C@H](Oc2cncc(N3C(=O)c4ccc(Cl)cc4C3(C)C)c2)C1 [Example 443]
Lookup: Would you mind telling me which has the lower recorded EC50 between A and B ? The response must carry the label of the picked entry.
Found: B
(B: 1170 nM, A: 7600 nM)
